Source listed as patent US9566312B2.

target: CYP3A4 (Homo sapiens (Human)); experiment: Time-dependent inhibition of CYP3A4;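 note: Two-step in vitro assay, kobs derived from residual CYP3A4 activity versus preincubation time per concentration, then kinact and KI by nonlinear fit of kobs against concentration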
Sequence (P08684 whole entry): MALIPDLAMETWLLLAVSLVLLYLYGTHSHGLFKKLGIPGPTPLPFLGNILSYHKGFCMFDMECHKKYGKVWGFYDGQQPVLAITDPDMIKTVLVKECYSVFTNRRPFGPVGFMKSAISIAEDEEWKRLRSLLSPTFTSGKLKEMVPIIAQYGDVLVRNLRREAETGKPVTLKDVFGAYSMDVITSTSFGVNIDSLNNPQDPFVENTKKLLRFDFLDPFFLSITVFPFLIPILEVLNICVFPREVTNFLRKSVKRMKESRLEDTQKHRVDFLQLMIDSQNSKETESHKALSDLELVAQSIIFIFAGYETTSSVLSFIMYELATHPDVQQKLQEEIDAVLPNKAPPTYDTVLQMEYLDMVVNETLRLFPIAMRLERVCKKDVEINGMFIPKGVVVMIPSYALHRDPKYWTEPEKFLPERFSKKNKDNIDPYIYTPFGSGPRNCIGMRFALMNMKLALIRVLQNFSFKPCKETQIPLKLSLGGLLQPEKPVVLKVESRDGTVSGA
Starred links: 1 amine or outer side, 2 acyl side, 3 side chain; linkers in the order of their positions; H or OH if unused. Non-standard residues stand in square brackets, D forms with d. Residues, ends and D or L forms follow the SMILES beside them. X22 = C[C@H](CN1CCN(C2CCC2)CC1)[C@@H](C(=O)[*:2])N(C)[*:1]; X8 = COCCN1CCN(C[C@@H](C)[C@@H](C(=O)[*:2])N(C)[*:1])CC1; NMe(dihydroBmt) = CCCC[C@@H](C)[C@@H](O)[C@H](NC)C(=O)O; MeBmt = C/C=C/C[C@@H](C)[C@@H](O)[C@H](NC)C(=O)O; NMeL = CN[C@@H](CC(C)C)C(=O)O; NMeV = CN[C@H](C(=O)O)C(C)C; dNMeA = CN[C@H](C)C(=O)O; Abu = CC[C@H](N)C(=O)O
ENDPOINT_NAME: KI (inactivation)

CCCC[C@@H](C)[C@@H](O)[C@H]1C(=O)N[C@@H](CC)C(=O)N(C)[C@H](C)C(=O)N(C)[C@@H]([C@H](C)CN2CCN(C3CCC3)CC2)C(=O)N[C@@H](C(C)C)C(=O)N(C)[C@@H](CC(C)C)C(=O)N[C@@H](C)C(=O)N[C@H](C)C(=O)N(C)[C@@H](CC(C)C)C(=O)N(C)[C@@H](CC(C)C)C(=O)N(C)[C@@H](C(C)C)C(=O)N1C [Compound 2.5.15] (cyclo([NMe(dihydroBmt)][Abu][dNMeA][X22]V[NMeL]A[dA][NMeL][NMeL][NMeV])): > 50 µM

We now examine a further compound.
Value of KI (inactivation) reported for the compound C/C=C/C[C@@H](C)[C@@H](O)[C@H]1C(=O)N[C@@H](CC)C(=O)N(C)[C@H](C)C(=O)N(C)[C@@H]([C@H](C)CN2CCN(CCOC)CC2)C(=O)N[C@@H](C(C)C)C(=O)N(C)[C@@H](CC(C)C)C(=O)N[C@@H](C)C(=O)N[C@H](C)C(=O)N(C)[C@@H](CC(C)C)C(=O)N(C)[C@@H](CC(C)C)C(=O)N(C)[C@@H](C(C)C)C(=O)N1C [Compound 2.5.10] (cyclo([MeBmt][Abu][dNMeA][X8]V[NMeL]A[dA][NMeL][NMeL][NMeV])) is > 50 µM
